Origin of the recorded values: ChEMBL document CHEMBL5291721

Overview of recorded AC50 for various molecules
Target: Sodium-dependent serotonin transporter (Homo sapiens, UniProt P31645); note: assay procedure not described here
Sequence (P31645 whole entry): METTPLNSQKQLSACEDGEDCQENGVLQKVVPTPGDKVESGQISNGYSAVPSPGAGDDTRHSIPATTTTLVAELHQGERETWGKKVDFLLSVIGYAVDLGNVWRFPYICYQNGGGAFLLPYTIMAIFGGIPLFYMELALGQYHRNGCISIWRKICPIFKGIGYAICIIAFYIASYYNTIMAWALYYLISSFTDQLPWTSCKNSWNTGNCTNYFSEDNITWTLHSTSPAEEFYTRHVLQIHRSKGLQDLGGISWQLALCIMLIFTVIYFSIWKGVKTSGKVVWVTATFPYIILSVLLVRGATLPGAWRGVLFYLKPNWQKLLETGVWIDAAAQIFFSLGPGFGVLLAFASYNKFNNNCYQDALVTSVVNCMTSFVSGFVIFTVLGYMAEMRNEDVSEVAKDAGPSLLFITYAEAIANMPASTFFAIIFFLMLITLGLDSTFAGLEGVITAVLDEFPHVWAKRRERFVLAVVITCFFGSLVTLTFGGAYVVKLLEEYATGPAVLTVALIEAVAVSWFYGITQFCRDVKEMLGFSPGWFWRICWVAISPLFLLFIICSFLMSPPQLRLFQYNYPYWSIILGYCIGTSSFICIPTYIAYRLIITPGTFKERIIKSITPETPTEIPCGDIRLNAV

Some molecules with known AC50 results, for comparison:
> print(dat)
                                   molecule  experimental.value
1  CC1=C(C/C=C(\C)CCC[C@H](C)CCC[C@H](C)CCCC(C)C)C(=O)c2ccccc2C1=O [PHYTONADIONE]             > 30 µM
2           CSCC[C@H](N)C(=O)O [METHIONINE]             > 30 µM
3  CN(C)CCN(Cc1ccccc1)c1ccccn1 [TRIPELENNAMINE]            0.395 µM
4     C=CCOc1ccc(CC(=O)O)cc1Cl [ALCLOFENAC]             > 30 µM

Provide AC50, recorded with Sodium-dependent serotonin transporter (Homo sapiens, UniProt P31645), of Cc1ccc(O)c([C@H](CCN(C(C)C)C(C)C)c2ccccc2)c1 [TOLTERODINE]
20.3 µM

# return AC50 for Cc1ccc2c([nH]c(=O)c3c(=O)cc(C(=O)OCCC(C)C)oc32)c1C , test system: Sodium-dependent serotonin transporter (Homo sapiens, UniProt P31645); note: assay procedure not described here
> 30 µM

Quote AC50 with test system Sodium-dependent serotonin transporter (Homo sapiens, UniProt P31645) for Cc1cc(C)cc(OCC2CNC(=O)O2)c1 (configuration not stated) [METAXALONE]; note: assay procedure not described here
> 30 µM
